Below, each entry is listed alongside its reported IL2-luciferase reporter (RLU), fold increase over WT CD80-IgV-Fc at 5.0 nM.
# system.tested: human PD-L1 (human) (UniProt Q9NZQ7)
# Sequence (Q9NZQ7 19-290): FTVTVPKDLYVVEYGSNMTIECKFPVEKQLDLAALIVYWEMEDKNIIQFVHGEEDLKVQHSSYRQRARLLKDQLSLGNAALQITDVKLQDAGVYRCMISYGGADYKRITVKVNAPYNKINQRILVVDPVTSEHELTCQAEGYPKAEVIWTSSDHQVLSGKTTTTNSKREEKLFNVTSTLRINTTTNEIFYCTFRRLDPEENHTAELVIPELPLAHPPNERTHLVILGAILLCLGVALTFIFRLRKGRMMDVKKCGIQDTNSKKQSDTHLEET
Please respond with the number in fold and leave the unit unwritten.

# example entries with known answers
binder | output.unit | result.number
CD80 E35D/M47V IgV-Fc (Fc fusion) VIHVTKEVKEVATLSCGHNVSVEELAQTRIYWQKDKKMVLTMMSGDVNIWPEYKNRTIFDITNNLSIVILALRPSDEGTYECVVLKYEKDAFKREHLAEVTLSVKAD | fold | 3.4
CD80 E35D/D46E/M47I IgV-Fc (Fc fusion) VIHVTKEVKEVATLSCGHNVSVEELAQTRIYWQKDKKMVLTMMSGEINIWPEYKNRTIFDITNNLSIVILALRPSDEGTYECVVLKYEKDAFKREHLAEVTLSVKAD | fold | 4.8
CD80 H18Y/E35D/M47L/A71G/A91S IgV-Fc (Fc fusion) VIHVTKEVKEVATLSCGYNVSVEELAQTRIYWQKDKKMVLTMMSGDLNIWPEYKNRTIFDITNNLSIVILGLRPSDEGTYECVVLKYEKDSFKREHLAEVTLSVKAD | fold | 4.7

Attention now turns to another entry.
The value of IL2-luciferase reporter (RLU), fold increase over WT CD80-IgV-Fc at 5.0 nM measured for the binder CD80 E35D/L97R IgV-Fc (Fc fusion) VIHVTKEVKEVATLSCGHNVSVEELAQTRIYWQKDKKMVLTMMSGDMNIWPEYKNRTIFDITNNLSIVILALRPSDEGTYECVVLKYEKDAFKREHRAEVTLSVKAD turned out to be 2.3
